Species: Rattus norvegicus
Experiment: Relative bioavailability of prodrugs in rat
Format: ADME, organism-based
Settings: in vivo
metric.name: Relative F%

Example entries begin here.
INSERT INTO assay_data (compound, recorded_result) VALUES
  ('CC(C)OC(=O)OC(C)O/C(=C1/C(=O)N(C(N)=O)c2cc(Cl)c(F)cc21)c1cccs1 (stereo not given)', 12),
  ('COC(=O)O/C(=C1\C(=O)N(C(N)=O)c2cc(Cl)c(F)cc21)c1cccs1', 13);

1 = CCC(OC)C(=O)OCO/C(=C1/C(=O)N(C(N)=O)c2cc(Cl)c(F)cc21)c1cccs1 (stereo not given)
2 = CC(=O)O/C(=C1\C(=O)N(C(N)=O)c2cc(Cl)c(F)cc21)c1cccs1
3 = CCCCCCCCOC(=O)O/C(=C1/C(=O)N(C(N)=O)c2cc(Cl)c(F)cc21)c1cccs1
-- ask Your job: order these 3 records by Relative F%, ascending. // list labels; follow requested order
-- reply 3, 2, 1
